Consider the following binders; for each one, report its KD relative to parental chimera.
Target: T1, Cynomolgus Monkey VSIG4-L-His (cynomolgus monkey)
T1 construct: ECD with His tag; also called cyVSIG4-L; cyno VSIG4-L-His
T1 chain: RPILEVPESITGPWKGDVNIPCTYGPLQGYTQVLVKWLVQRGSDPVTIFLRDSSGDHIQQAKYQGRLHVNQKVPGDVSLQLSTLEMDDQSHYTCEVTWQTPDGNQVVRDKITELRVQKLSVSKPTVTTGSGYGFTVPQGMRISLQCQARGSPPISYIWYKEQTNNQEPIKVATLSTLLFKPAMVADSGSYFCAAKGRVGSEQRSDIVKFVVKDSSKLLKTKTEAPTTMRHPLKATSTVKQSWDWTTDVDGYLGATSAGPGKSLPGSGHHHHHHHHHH
Experiment: BLI, IgG on AHC sensor, antigen 100 nM
For clarity, give the value followed by its unit.

Input: Reported KD relative to parental chimera for h12A12.D humanized IgG4 (S228P) kappa (antibody, V domains shown) VH: QVQMVQSGSELKKPGASVKVSCKASGYTFTNYWMHWVRQAPGQGLEWMGYINPSTGYTDYNQGFTGRFVFSADKSVSTAYLQISSLKAEDTAVYYCIRGSDYYGRDYWGQGTTVTVSS VL: EIVMTQSPATLSLSPGERATLSCRASQDISNYLNWYQQKPGQALRLLIYYTSRRHTGIPARFSGSGSGTDYTLTISSLEPEDFAVYYCRQGNTLPWTFGGGTKLEIKR : what is it?
Output: 1.2 fold

Input: Reported KD relative to parental chimera for h12A12.G humanized IgG4 (S228P) kappa (antibody, V domains shown) VH: QVQLVQSGAEVKKPGASVKVSCKASGYTFTNYWMHWVRQAPGQGLEWMGYINPSTGYTDYNQKFQGRVTMTADTSTSTVYMELSSLRSEDTAVYYCIRGSDYYGRDYWGQGTTVTVSS VL: DIQMTQSPSSLSASVGDRVTITCQASQDISNYLNWYQQKPGKAPKLLIYYTSRLHSGVPSRFSGSGSGTDYTFTISSLQPEDIATYYCRQGNTLPWTFGGGTKLEIKR : what is it?
Output: 1.1 fold
